B1: F1*; the commonest letter at each place (parent)
chain: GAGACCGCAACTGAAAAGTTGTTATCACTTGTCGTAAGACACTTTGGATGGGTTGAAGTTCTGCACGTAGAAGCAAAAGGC

Variants of: B1
Method Summary: fraction ligated after 30 min (ligated reads / total reads); higher = more ligase activity
Measurement Conditions: with F1*sub RNA substrate (template-directed ligation), 42 °C
Record Y whenever fraction ligated is at 0.8 or higher; record N when lower.

[
  {
    "Mutant": "T35C A39T",
    "Category": "Y"
  },
  {
    "Mutant": "G38A A39G",
    "Category": "Y"
  },
  {
    "Mutant": "T43A A57T",
    "Category": "Y"
  },
  {
    "Mutant": "C40T A48C",
    "Category": "N"
  },
  {
    "Mutant": "G31T T45G",
    "Category": "N"
  },
  {
    "Mutant": "C42G G47C",
    "Category": "N"
  },
  {
    "Mutant": "G58T",
    "Category": "Y"
  },
  {
    "Mutant": "G47C A56G",
    "Category": "N"
  },
  {
    "Mutant": "A39C G50A",
    "Category": "N"
  },
  {
    "Mutant": "G38C G50T",
    "Category": "N"
  },
  {
    "Mutant": "C26T A36G",
    "Category": "Y"
  },
  {
    "Mutant": "A24C C33G",
    "Category": "N"
  },
  {
    "Mutant": "A39C A41T",
    "Category": "N"
  },
  {
    "Mutant": "C33G G50C",
    "Category": "N"
  },
  {
    "Mutant": "A24G T32G",
    "Category": "N"
  },
  {
    "Mutant": "T29C G47C",
    "Category": "N"
  },
  {
    "Mutant": "G38A A39T",
    "Category": "Y"
  },
  {
    "Mutant": "C33A C40G",
    "Category": "Y"
  },
  {
    "Mutant": "T43A T45G",
    "Category": "N"
  },
  {
    "Mutant": "C33A A39G",
    "Category": "Y"
  },
  {
    "Mutant": "G34A G55A",
    "Category": "Y"
  },
  {
    "Mutant": "G46T A56C",
    "Category": "N"
  },
  {
    "Mutant": "T25A G31T",
    "Category": "N"
  },
  {
    "Mutant": "C40T A57G",
    "Category": "Y"
  },
  {
    "Mutant": "G38A C40A",
    "Category": "Y"
  },
  {
    "Mutant": "A24T C26G",
    "Category": "N"
  },
  {
    "Mutant": "A37T G50A",
    "Category": "N"
  },
  {
    "Mutant": "C33G A57C",
    "Category": "Y"
  },
  {
    "Mutant": "C40T A41G",
    "Category": "N"
  },
  {
    "Mutant": "T32C T49A",
    "Category": "N"
  },
  {
    "Mutant": "T25A A27C",
    "Category": "N"
  },
  {
    "Mutant": "G47C T49G",
    "Category": "N"
  },
  {
    "Mutant": "T29G G31A",
    "Category": "Y"
  },
  {
    "Mutant": "T23G G55A",
    "Category": "Y"
  },
  {
    "Mutant": "C28A G47C",
    "Category": "N"
  },
  {
    "Mutant": "T30A A37G",
    "Category": "Y"
  },
  {
    "Mutant": "T25A T29A",
    "Category": "N"
  },
  {
    "Mutant": "A41G A57T",
    "Category": "N"
  },
  {
    "Mutant": "A48C A57C",
    "Category": "N"
  },
  {
    "Mutant": "A41G T49C",
    "Category": "N"
  },
  {
    "Mutant": "T32G C40A",
    "Category": "Y"
  },
  {
    "Mutant": "G34T A36T",
    "Category": "Y"
  },
  {
    "Mutant": "T44C G50T",
    "Category": "N"
  },
  {
    "Mutant": "T29G G50T",
    "Category": "N"
  },
  {
    "Mutant": "T23C T43G",
    "Category": "N"
  },
  {
    "Mutant": "A24C A57G",
    "Category": "N"
  },
  {
    "Mutant": "A37C T44A",
    "Category": "Y"
  },
  {
    "Mutant": "T30C A56T",
    "Category": "N"
  },
  {
    "Mutant": "A24G G46T",
    "Category": "N"
  },
  {
    "Mutant": "A24C C40A",
    "Category": "N"
  },
  {
    "Mutant": "A39T A56C",
    "Category": "N"
  },
  {
    "Mutant": "G38C T49C",
    "Category": "N"
  }
]
